Test system: Cabbage Looper [Trichoplusia ni (Hubner)]
ASSAY OVERVIEW: Cabbage looper insecticidal test
Type: in vivo
RUN CONDITIONS: second-instar larvae, percent in solution; 3-5 days
Mark Fulfilled for LC50, CL under 0.002%, Not fulfilled if at or over.

Worked examples, 5 molecules total:
{"MOLECULE": "CCc1ccc(N=C(OCc2cccc(Oc3ccc(Cl)cc3)n2)C(C)C)cc1", "SYSTEM UNDER TEST": "Cabbage Looper [Trichoplusia ni (Hubner)]", "LABEL VALUE": "Fulfilled"}
{"MOLECULE": "CC(C)C(=Nc1ccc(I)c(Cl)c1)OCc1ccc(F)c(Oc2ccc(F)cc2)c1", "SYSTEM UNDER TEST": "Cabbage Looper [Trichoplusia ni (Hubner)]", "LABEL VALUE": "Not fulfilled"}
{"MOLECULE": "ClC(Cl)C(=Nc1ccccc1)OCc1cccc(Oc2ccccc2)c1", "SYSTEM UNDER TEST": "Cabbage Looper [Trichoplusia ni (Hubner)]", "LABEL VALUE": "Not fulfilled"}
{"MOLECULE": "COc1ccc(N=C(OCc2cccc(Oc3ccccc3)c2)C(C)C)cc1OC", "SYSTEM UNDER TEST": "Cabbage Looper [Trichoplusia ni (Hubner)]", "LABEL VALUE": "Not fulfilled"}
{"MOLECULE": "CC(C)C(=Nc1ccc(F)c(Cl)c1)OCc1cccc(Oc2cccc(Cl)c2)c1", "SYSTEM UNDER TEST": "Cabbage Looper [Trichoplusia ni (Hubner)]", "LABEL VALUE": "Not fulfilled"}

Is it true that LC50, CL reported for CC(C)C(=Nc1ccc(OC(F)(F)F)cc1)OCc1cccc(Cc2ccccc2)c1 [Compound 538] is less than 0.002%?
Not fulfilled

Is it true that LC50, CL reported for CC(C)(C)C(=Nc1ccc(Br)c(Cl)c1)OCc1cccc(Oc2ccccc2)c1 is less than 0.002%?
Not fulfilled

Is it true that LC50, CL reported for CC(C)C(=Nc1c(F)c(F)c(F)c(F)c1F)OCc1cccc(Oc2ccc(F)cc2)c1 is less than 0.002%?
Fulfilled
